The values you see were collected from ChEMBL document CHEMBL2021766.

Here, each record is paired with measured inhibition in vivo at 100 mg/kg/day data.
system: Plasmodium yoelii; assay: Antimalarial activity against chloroquine-resistant Plasmodium yoelii N-67 infected Swiss mouse assessed as suppression of parasitemia at 100 mg/kg/day, po qd for 4 days measured on day 4; assay type: functional; settings: N-67, 96 h
Respond with the bare value in %.

Known results for compounds:
Compound	inhibition in vivo at 100 mg/kg/day / %
CC1=CC(/C=C/C(=O)c2ccc(Br)cc2)=CC(=C\NCCNc2ccnc3cc(Cl)ccc23)/C1=O	99.7
CC(C)(C)C1=CC(/C=C/C(=O)c2ccc(F)cc2)=CC(=C\NCCNc2ccnc3cc(Cl)ccc23)/C1=O	99.9
CCC(C)C1=CC(/C=C/C(=O)c2cccs2)=CC(=C\NCCNc2ccnc3cc(Cl)ccc23)/C1=O (stereo unspecified)	99.4
CC1=CC(/C=C/C(=O)c2cccs2)=CC(=C\NCCNc2ccnc3cc(Cl)ccc23)/C1=O	99.8
CC1=CC(/C=C/C(=O)c2ccc(F)cc2)=CC(=C\NCCNc2ccnc3cc(Cl)ccc23)/C1=O	99.5

Consider now this further compound.
Inquiry: Using the record for CCC(C)C1=CC(/C=C/C(=O)c2ccccc2)=CC(=C\NCCNc2ccnc3cc(Cl)ccc23)/C1=O (stereo unspecified) , state its measured inhibition in vivo at 100 mg/kg/day.
Reply text: 99.6

----------
Reported Ratio CC50/IC50 values for the following compounds.
assay: Selectivity index, ratio of CC50 for monkey Vero cells to IC50 for chloroquine-sensitive ring stage Plasmodium falciparum 3D7; format: functional
Number, no unit, nothing else.

Compound	Result number
CCC(C)C1=CC(/C=C/C(=O)c2ccc(Cl)cc2)=CC(=C\NCCCNc2ccnc3cc(Cl)ccc23)/C1=O (configuration not stated)	491.77
CC1=CC(/C=C/C(=O)c2ccc(Cl)cc2)=CC(=C\NCCCNc2ccnc3cc(Cl)ccc23)/C1=O	513.99
COc1cc(C(=O)/C=C/C2=CC(=C\NCCNc3ccnc4cc(Cl)ccc34)/C(=O)C(C)=C2)cc(OC)c1OC	1392.22

Inquiry: Note down Ratio CC50/IC50 recorded for CCC(C)C1=CC(/C=C/C(=O)c2ccc(OC)cc2)=CC(=C\NCCNc2ccnc3cc(Cl)ccc23)/C1=O (configuration not stated)
Reply text: 1058.05

Inquiry: Please give the documented Ratio CC50/IC50 of CCC(C)C1=CC(/C=C/C(=O)c2ccc(Cl)cc2)=CC(=C\NCCNc2ccnc3cc(Cl)ccc23)/C1=O (configuration not stated)
Reply text: 1014.51

Inquiry: Retrieve Ratio CC50/IC50 measured for `COc1ccc(C(=O)/C=C/C2=CC(=C\NCCCNc3ccnc4cc(Cl)ccc34)/C(=O)C(C)=C2)cc1` and print it.
Reply text: 295.66

Inquiry: Give recorded Ratio CC50/IC50. CCC(C)C1=CC(/C=C/C(=O)c2ccccc2)=CC(=C\NCCNc2ccnc3cc(Cl)ccc23)/C1=O (configuration not stated)
Reply text: 498.54

Inquiry: Name the recorded Ratio CC50/IC50 of the compound listed here: `COc1ccc(C(=O)/C=C/C2=CC(=C\Nc3ccc(Nc4ccnc5cc(Cl)ccc45)cc3)/C(=O)C(C)=C2)cc1`
Reply text: 315.33

Inquiry: Tell me measured Ratio CC50/IC50 for CCC(C)C1=CC(/C=C/C(=O)c2ccco2)=CC(=C\Nc2ccc(Nc3ccnc4cc(Cl)ccc34)cc2)/C1=O (configuration not stated) please.
Reply text: 678.11

Inquiry: Write down Ratio CC50/IC50 measured for item CCC(C)C1=CC(/C=C/C(=O)c2ccc(O)cc2)=CC(=C\NCCNc2ccnc3cc(Cl)ccc23)/C1=O (configuration not stated)
Reply text: 1071.27

Inquiry: // fetch Ratio CC50/IC50 given entry CCC(C)C1=CC(/C=C/C(=O)c2ccco2)=CC(=C\NCCNc2ccnc3cc(Cl)ccc23)/C1=O (configuration not stated)
Reply text: 1138.22

Inquiry: State its Ratio CC50/IC50: CCC(C)C1=CC(/C=C/C(=O)c2cccs2)=CC(=C\NCCNc2ccnc3cc(Cl)ccc23)/C1=O (configuration not stated)
Reply text: 1373.63

Inquiry: Please list Ratio CC50/IC50 recorded for the compound `CC1=CC(/C=C/C(=O)c2ccc(F)cc2)=CC(=C\NCCNc2ccnc3cc(Cl)ccc23)/C1=O`
Reply text: 1034.23

Inquiry: Supply recorded Ratio CC50/IC50 for CCC(C)C1=CC(/C=C/C(=O)c2ccc(OC)cc2)=CC(=C\NCCCNc2ccnc3cc(Cl)ccc23)/C1=O (configuration not stated) here.
Reply text: 549.12

Inquiry: Using the record for `CC(C)(C)C1=CC(/C=C/C(=O)c2ccc(Cl)cc2)=CC(=C\NCCNc2ccnc3cc(Cl)ccc23)/C1=O` , state its measured Ratio CC50/IC50.
Reply text: 868.3

Inquiry: Please give measured Ratio CC50/IC50 of the following entry: `CC(C)(C)C1=CC(/C=C/C(=O)c2ccc(Br)cc2)=CC(=C\NCCNc2ccnc3cc(Cl)ccc23)/C1=O`
Reply text: 1883.62

Inquiry: Complete the entry with Ratio CC50/IC50 for `COc1ccc(C(=O)/C=C/C2=CC(=C\NCCNc3ccnc4cc(Cl)ccc34)/C(=O)C(C)=C2)cc1`
Reply text: 1137.97

Inquiry: Return the recorded Ratio CC50/IC50 value; entry: CCC(C)C1=CC(/C=C/C(=O)c2ccc(O)cc2)=CC(=C\NCCCNc2ccnc3cc(Cl)ccc23)/C1=O (configuration not stated)
Reply text: 486.57

Inquiry: Please list Ratio CC50/IC50 recorded for the compound `CC1=CC(/C=C/C(=O)c2ccc(O)cc2)=CC(=C\NCCNc2ccnc3cc(Cl)ccc23)/C1=O`
Reply text: 27548.21

Inquiry: Tell me Ratio CC50/IC50 reported for `CC1=CC(/C=C/C(=O)c2ccc(C)cc2)=CC(=C\NCCNc2ccnc3cc(Cl)ccc23)/C1=O`
Reply text: 1034.23

Inquiry: Supply reported Ratio CC50/IC50 belonging to this compound: `CC1=CC(/C=C/C(=O)c2ccc(O)cc2)=CC(=C\NCCCNc2ccnc3cc(Cl)ccc23)/C1=O`
Reply text: 505.98
